# Test system: HIV-1 (MT-2 cells)
# procedure.details: Anti-HIV MTT assay, inhibition of HIV-induced cell killing, MT-2 cells
# Type: cell-based, HIV-1 isolates IIIB and/or RF
# condition.context: Human immunodeficiency virus 1, MT2, 144 h; MT-2 cells (second position), 6 days, 37° C., MTT; read-out: Viral MT-2
Readings of IC50 for the listed molecules
Give just the numeric value; µg/mL need not be written.

Reference set (2 entries):
- CCC1(N(CCOC(C)=O)C(=O)c2ccccc2CCC(O)Cc2ccc(C)cc2C(=O)N(CCOC(C)=O)C(C)(C)c2ccccc2)CCCC1 (stereo not drawn): 1.72
- CCC1(N(CCO)C(=O)c2ccccc2CCC(O)Cc2ccc(Cl)cc2C(=O)N(CCO)C(C)(C)c2ccccc2)CCCC1 (stereo not drawn): 0.49

Next, consider the following molecule.
Q. # get_value(readout='IC50', item= CCC1(N(CC2COC(C)(C)OC2)C(=O)c2ccccc2CCC(O)Cc2ccc(C)cc2C(=O)N(CC2COC(C)(C)OC2)C(C)(C)c2ccccc2)CCCC1 (stereo not drawn) )
A. 1.7

---

# system.tested: HIV-1 protease (Human immunodeficiency virus type 1 group M subtype B)
# Construct: purified HIV-1 protease
# procedure.details: biochemical
# Assay type: biochemical
test.readout: pKi
// pKi: -log10(molar conc.)

Reference set (4 entries):
* CCC1(N(CCO)C(=O)c2ccccc2CCC(O)Cc2ccc(C)cc2C(=O)N(CCO)C(C)(C)c2ccc(O)cc2)CCCC1 (centres unmarked) | 8.40
* CC(C)(C)N(CCO)C(=O)c1ccccc1CCC(O)Cc1ccccc1C(=O)N(CCO)C(C)(C)C (centres unmarked) | 6.08
* CC(C)(C)NC(=O)c1c(CCC(O)Cc2ccc3ccccc3c2C(=O)NC(C)(C)C)ccc2ccccc12 (single isomer, unassigned) | 6.32
* CCC1(N(CCO)C(=O)c2ccccc2CCC(O)Cc2ccc(C)cc2C(=O)N(CCC(O)CO)C(C)(C)c2ccccc2)CCCC1 (centres unmarked) | 8.02

Next, consider the following compound.
Q. What is its pKi for HIV-1 protease (Human immunodeficiency virus type 1 group M subtype B)? Entry: CCC1(N(CCO)C(=O)c2ccccc2CCC(O)Cc2ccc(C)cc2C(=O)N(CC(CO)CO)C(C)(C)c2ccccc2)CCCC1 (centres unmarked)
A. 8.00

---

# system.tested: HIV-1 protease (Human immunodeficiency virus type 1 group M subtype B)
# Construct: purified HIV-1 protease
# procedure.details: biochemical
# Type: biochemical
# condition.context: 0.5M NaCl, 50 mM MES pH 5.6, 2% DMSO, 37° C., 200 μM substrate
Threshold check on Ki: strictly below 20 nM is 1 (yes); on or above 20 nM is 0 (no).

Worked set:
* CC(C)(C)NC(=O)c1ccccc1CC(O)C(O)Cc1ccccc1C(=O)NC(C)(C)C (stereo not shown) [Example 56] | 0 (no)
* CCC1(N(CCO)C(=O)c2ccccc2CCC(O)Cc2ccc(C)cc2C(=O)N(CCO)C(C)(C)c2ccc(OCCN3CCOCC3)cc2)CCCC1 (stereo not shown) [Example 108] | 1 (yes)
* CCC1(N(CCO)C(=O)c2ccccc2CCC(O)Cc2ccc(C)cc2C(=O)N(CC2CCCO2)C(C)(C)c2ccccc2)CCCC1 (stereo not shown) [Example 115] | 1 (yes)

Q. Would you kindly verify if Ki of CCC1(N(CCO)C(=O)c2ccccc2CCC(O)Cc2ccc(C)cc2C(=O)N(CCO)C(C)(C)c2ccc(OCCCN(CCO)CCO)cc2)CCCC1 (stereo not shown) [Example 113] is strictly less than 20 nM?
A. 1 (yes)

Q. Would you kindly verify if Ki of CCC1(N(CCO)C(=O)c2ccccc2CCC(O)Cc2ccc(C)cc2C(=O)N(CCO)C(CC)(CC)c2ccccc2)CCCC1 (stereo not shown) [Example 101] is strictly less than 20 nM?
A. 1 (yes)

Q. Would you kindly verify if Ki of Cc1ccc(CCC(O)Cc2ccccc2C(=O)N(CCO)C2(C)CCCC2)c(C(=O)N(CCO)C(C)(C)C)c1 (stereo not shown) [Example 4] is strictly less than 20 nM?
A. 0 (no)

Q. Would you kindly verify if Ki of CCC1(N(CCO)C(=O)c2ccccc2CCC(O)Cc2ccccc2C(=O)N(CCO)C23CCCCC2CCCC3)CCCC1 (stereo not shown) [Example 97] is strictly less than 20 nM?
A. 0 (no)

---

# system.tested: HIV-1 protease (Human immunodeficiency virus type 1 group M subtype B, UniProt P04585)
# Construct: purified HIV-1 protease
# procedure.details: biochemical
# Format: biochemical
# condition.context: 0.5M NaCl, 50 mM MES pH 5.6, 2% DMSO, 37° C., 200 μM substrate
test.readout: IC50 (µM)
Give just the numeric value; µM need not be written.

Reference set (10 entries):
* CC(C)(C)NC(=O)c1ccccc1SCC(O)CN1CCCCC1C(=O)NC(C)(C)C (stereo not drawn) | 60
* CC(C)(C)NC(=O)c1c(CCC(O)Cc2ccc3ccccc3c2C(=O)N(CCO)C(C)(C)C)ccc2ccccc12 (stereo not drawn) | 5.6
* CC(C)(C)N(CCO)C(=O)c1ccccc1CCC(O)C(F)(F)c1ccccc1C(=O)N(CCO)C(C)(C)c1ccccc1 (stereo not drawn) | 3.5
* Cc1ccc(CC(O)CCc2ccccc2C(=O)N(CCO)C(C)(C)C)c(C(=O)N(CCO)C(C)(C)c2ccccc2)c1 (stereo not drawn) | 0.18
* CCC1(N(CCO)C(=O)c2ccccc2CCC(O)Cc2ccc(C)cc2C(=O)N(CC2CCCO2)C(C)(C)c2ccccc2)CCCC1 (stereo not drawn) | 0.29
* CC(C)(C)NC(=O)c1cc(C(C)(C)C)ccc1CCC(O)Cc1ccc(C(C)(C)C)cc1C(=O)NC(C)(C)C (stereo not drawn) | 15
* CCC1(N(CC(CO)CO)C(=O)c2ccccc2CCC(O)Cc2ccc(C)cc2C(=O)N(CC(CO)CO)C(C)(C)c2ccccc2)CCCC1 (stereo not drawn) | 0.092
* CC(C)(C)NC(=O)c1cc2ccccc2cc1CCC(O)Cc1ccccc1C(=O)N(CCO)C(C)(C)C (stereo not drawn) | 4.1
* CC(C)(C)N(CCO)C(=O)c1ccccc1CCC(=O)C(F)c1ccccc1C(=O)N(CCO)C(C)(C)c1ccccc1 (stereo not drawn) | 9
* CCC1(N(CCO)C(=O)c2ccccc2CCC(O)Cc2ccc(Cl)cc2C(=O)N(CCO)C(C)(C)c2ccccc2)CCCC1 (stereo not drawn) | 0.086

Q. # get_value(readout='IC50', item= CC(C)(C)NC(=O)c1ccccc1NCC(O)Cc1ccc2ccccc2c1C(=O)NC(C)(C)C (stereo not drawn) [Example 50] )
A. 120

Q. # get_value(readout='IC50', item= CC(C)(C)N(CCO)C(=O)c1ccccc1CCC(O)Cc1ccccc1C(=O)N(CCO)C1(C)CCCC1 (stereo not drawn) )
A. 0.95

---

# Tested on: HIV-1 (MT-2 cells)
# procedure.details: Anti-HIV MTT assay, inhibition of HIV-induced cell killing, MT-2 cells
# Type: cell-based, HIV-1 isolates IIIB and/or RF
# condition.context: Human immunodeficiency virus 1, MT2, 144 h; MT-2 cells (second position), 6 days, 37° C., MTT; read-out: Viral MT-2
Threshold check on IC50: strictly below 2 mg/L is met; on or above 2 mg/L is not met.

Worked set:
* CCC1(N(CCO)C(=O)c2ccccc2CCC(O)Cc2ccc(C)cc2C(=O)N(CC2COC(C)(C)OC2)C(C)(C)c2ccccc2)CCCC1 (stereo not shown) | met
* CCC1(N(CCO)C(=O)c2ccccc2CCC(O)Cc2ccc(C)cc2C(=O)N(CCO)C(C)(C)c2ccccc2)CCCC1 (stereo not shown) | met
* CC(C)(C)N(CCO)C(=O)c1ccccc1CCC(O)Cc1ccccc1C(=O)N(CCO)C(C)(C)c1ccccc1 (stereo not shown) | not met
* CCCC(CC)(CC)N(CCO)C(=O)c1ccccc1CC(O)CCc1ccccc1C(=O)N(CCO)C(C)(C)C (stereo not shown) | not met
* CCC1(N(CCO)C(=O)c2ccccc2CCC(O)Cc2ccccc2C(=O)N(CCO)C2(c3ccccc3)CCCC2)CCCC1 (stereo not shown) | met

Q. Would you kindly verify if IC50 of CC(C)(C)N(CCO)C(=O)c1ccccc1CCC(O)Cc1ccccc1C(=O)N(Cc1ncc[nH]1)C(C)(C)c1ccccc1 (stereo not shown) is strictly less than 2 mg/L?
A. not met

Q. Would you kindly verify if IC50 of CCC1(N(CCO)C(=O)c2ccccc2CCC(O)Cc2ccc(C)cc2C(=O)N(CCO)C(C)(C)c2ccc(OCc3cccnc3)cc2)CCCC1 (stereo not shown) is strictly less than 2 mg/L?
A. met

---

# system.tested: HIV-1 protease (Human immunodeficiency virus type 1 group M subtype B, UniProt P04585)
# Construct: purified HIV-1 protease
# procedure.details: biochemical
# Type: biochemical
# condition.context: 0.5M NaCl, 50 mM MES pH 5.6, 2% DMSO, 37° C., 200 μM substrate
test.readout: pIC50
// pIC50: -log10(molar conc.)

Q. # get_value(readout='pIC50', item= CCC1(N(CCO)C(=O)c2ccccc2CCC(O)Cc2ccc(C)cc2C(=O)N(CCO)C(CC)(CC)c2ccccc2)CCCC1 (stereo not shown) [Example 101] )
A. 6.99

Q. # get_value(readout='pIC50', item= CC(C)(C)N(CCO)C(=O)c1ccccc1CC(O)CSc1ccccc1C(=O)N(CCO)C(C)(C)C (stereo not shown) [Example 85] )
A. 4.44

Q. # get_value(readout='pIC50', item= CC(C)(C)NC(=O)c1cc(C(C)(C)C)ccc1CCC(O)Cc1ccc2ccccc2c1C(=O)NC(C)(C)C (stereo not shown) [Example 7] )
A. 5.99

Q. # get_value(readout='pIC50', item= CCC1(N(CCOC(C)=O)C(=O)c2ccccc2CCC(O)Cc2ccc(C)cc2C(=O)N(CCOC(C)=O)C(C)(C)c2ccccc2)CCCC1 (stereo not shown) [Example 110] )
A. 7.17

Q. # get_value(readout='pIC50', item= CCC1(N(CCO)C(=O)c2ccccc2CCC(O)Cc2ccc(C)cc2C(=O)N(CCO)C(C)(C)c2ccc(OCc3ccc[n+]([O-])c3)cc2)CCCC1 (stereo not shown) [Example 111] )
A. 7.28
